Documented IC50 across a set of molecules
target: cGMP-specific 3',5'-cyclic phosphodiesterase (Homo sapiens); test: Inhibition of human PDE5 partially purified from MCF-7 cells

// IC50 lookup, key: `CNCCOc1ccc(Cl)c2c1C1(CCCCC1)NC(=O)N2`
> 101 µM

Moving on to the next molecule: `CN(C)CCOc1ccc(Cl)c2c1C1(CCCCC1)NC(=O)N2`
74 µM

Moving on to the next molecule: `O=C(O)COc1ccc(Cl)c2c1C1(CCCCC1)NC(=O)N2`
> 101 µM

Moving on to the next molecule: `CCOC(=O)c1ccc(COc2ccc(Cl)c3c2C2(CCCCC2)NC(=O)N3)o1`
80 µM

Moving on to the next molecule: `NCCOc1ccc(Cl)c2c1C1(CCCCC1)NC(=O)N2`
73.2 µM

Moving on to the next molecule: `O=C1Nc2c(Cl)ccc(OCc3ccc(C(=O)O)o3)c2C2(CCCCC2)N1`
> 101 µM

Moving on to the next molecule: `O=C(O)CNCCOc1ccc(Cl)c2c1C1(CCCCC1)NC(=O)N2`
> 101 µM

Moving on to the next molecule: `O=C1Nc2c(Cl)ccc(OCCN3CCOCC3)c2C2(CCCCC2)N1`
> 101 µM

Moving on to the next molecule: `N#CCOc1ccc(Cl)c2c1C1(CCCCC1)NC(=O)N2`
> 101 µM
